method: Solubility in water/DMSO at 60° C.
Type: physicochemical
conditionLabel: water/DMSO, 60 °C, organic solvent or mixture, thermodynamic from solid, Water/DMSO at 60° C., 8 % water by volume
measurementName: solubility at 24 h
Entry format: amount then unit.

q: Return reported solubility at 24 h; argument: Cc1[nH]ncc1-c1cc2nc([C@@H]3CC4CCN3CC4)[nH]c(=O)c2s1 [Compound 1 Crystalline Form I, hemihydrate]
a: 34.8 mg/mL
